- measurement-protocol: Aqueous solubility of the compound
- Assay type: physicochemical
- setup-conditions: water; read-out: solubility
measured-attribute: solubility (mg/mL)
One number for each entry, in mg/mL.

>  <chemical-string>
C[S+](C)CC(=O)CC[C@H](NC(=O)[C@@H]1CCCN1C(=O)OCc1ccccc1)C(=O)O.[Br-]

>  <unit>
mg/mL

>  <result-number>
500

$$$$
>  <chemical-string>
CC(=O)CSc1n(C)cc[n+]1C.[Cl-]

>  <unit>
mg/mL

>  <result-number>
200

$$$$

Task item: Give its solubility value. Item: C[S+](C)CC(=O)CC[C@H](NC(=O)CNC(=O)OCc1ccccc1)C(=O)O.[Br-]
Reply: 1000

* * *

Could you please report measured pIC50 for the items listed next?
- measurement-protocol: Inhibition of guinea pig liver transglutaminase 2 using 5-(biotinamido)pentylamine as substrate by enzyme linked sorbent assay
- Design: species or system Cavia porcellus
Give bare numbers, as −log10 of the molar value.

>  <compound>
CC(=O)CSc1n(C)cc[n+]1C.[Cl-]

>  <result-number>
5.40

$$$$
>  <compound>
C[S+](C)CC(=O)CC[C@H](NC(=O)CNC(=O)OCc1ccccc1)C(=O)O.[Br-]

>  <result-number>
5.10

$$$$
>  <compound>
C[S+](C)CC(=O)CC[C@H](NC(=O)[C@@H]1C[C@@H](O)CN1C(=O)OCc1ccccc1)C(=O)O

>  <result-number>
4.74

$$$$
>  <compound>
C[S+](C)CC(=O)CC[C@H](NC(=O)[C@H](Cc1ccccc1)NC(=O)OCc1ccccc1)C(=O)O.[Br-] (stereo in doubt; 4d)

>  <result-number>
5.00

$$$$
>  <compound>
Cc1c(C)[n+](C)c(SCC(=O)CC[C@H](NC(=O)[C@H](Cc2ccccc2)NC(=O)OCc2ccccc2)C(=O)O)n1C

>  <result-number>
5.52

$$$$

Here is the next item to consider.
Task item: I would be grateful if you could share the reported pIC50 for C[C@H](NC(=O)OCc1ccccc1)C(=O)N[C@@H](CCC(=O)C[S+](C)C)C(=O)O .
Reply: 4.70
